- Assay type: in vitro ADME, Human
- TEST CONTEXT: human, pH 7.4
Where a SMILES comes first, the peptide text is derived from it. [ ]: non-standard residue; d: D form. Trp(1-(1,1-Me2-allyl)) = C=CC(C)(C)n1cc(C[C@H](N)C(=O)O)c2ccccc21; Ala(3R-Me,3-isobutenyl) = CC(C)=C[C@@H](C)[C@H](N)C(=O)O; NMeLeu(5-OH,4R) = CN[C@@H](C[C@@H](C)CO)C(=O)O; Phe(βR-OMe) = CO[C@H](c1ccccc1)[C@H](N)C(=O)O; NMeL = CN[C@@H](CC(C)C)C(=O)O
REPORTED ENDPOINT: Hepatocyte Human (%Qh)
Note: unit %Qh is implicit; provide only the numeric part.

C=CC(C)(C)n1cc(C[C@@H]2NC(=O)[C@H]([C@H](C)C=C(C)C)NC(=O)[C@H](CC(C)C)N(C)C(=O)[C@H](C(C)C)NC(=O)[C@H]([C@H](OC)c3ccccc3)NC(=O)[C@H](C)NC(=O)[C@H](C[C@@H](C)CO)N(C)C2=O)c2ccccc21 [dCymC] (cyclo([Trp(1-(1,1-Me2-allyl))][NMeLeu(5-OH,4R)]A[Phe(βR-OMe)]V[NMeL][Ala(3R-Me,3-isobutenyl)])) = 36

Here's the next entry for you.
// query What Hepatocyte Human value was documented for this compound, COC(c1ccccc1)C1NC(=O)C(C)NC(=O)C(CC(C)CO)N(C)C(=O)C(Cc2cn(C)c3ccccc23)NC(=O)C(Cc2cn(CCCCCn3cc(CC4NC(=O)C(CC(C)C)N(C)C(=O)C(C(C)C)NC(=O)C(C(OC)c5ccccc5)NC(=O)C(C)NC(=O)C(CC(C)CO)N(C)C(=O)C(Cc5cn(C)c6ccccc56)NC4=O)nn3)nn2)NC(=O)C(CC(C)C)N(C)C(=O)C(C(C)C)NC1=O (centres unmarked) [Compound 12] ?
// result 12

---

- SYSTEM TESTED: ClpC1-NTD substrate, M. tuberculosis ClpC1P1P2 (Mycobacterium tuberculosis, UniProt P9WPC9)
- Sequence (P9WPC5 whole entry): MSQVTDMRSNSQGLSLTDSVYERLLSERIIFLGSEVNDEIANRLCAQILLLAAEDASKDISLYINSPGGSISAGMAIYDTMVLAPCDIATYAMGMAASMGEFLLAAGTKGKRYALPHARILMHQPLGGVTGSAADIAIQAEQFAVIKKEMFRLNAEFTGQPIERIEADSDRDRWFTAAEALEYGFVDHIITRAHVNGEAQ
- Sequence (P9WPC9 whole entry): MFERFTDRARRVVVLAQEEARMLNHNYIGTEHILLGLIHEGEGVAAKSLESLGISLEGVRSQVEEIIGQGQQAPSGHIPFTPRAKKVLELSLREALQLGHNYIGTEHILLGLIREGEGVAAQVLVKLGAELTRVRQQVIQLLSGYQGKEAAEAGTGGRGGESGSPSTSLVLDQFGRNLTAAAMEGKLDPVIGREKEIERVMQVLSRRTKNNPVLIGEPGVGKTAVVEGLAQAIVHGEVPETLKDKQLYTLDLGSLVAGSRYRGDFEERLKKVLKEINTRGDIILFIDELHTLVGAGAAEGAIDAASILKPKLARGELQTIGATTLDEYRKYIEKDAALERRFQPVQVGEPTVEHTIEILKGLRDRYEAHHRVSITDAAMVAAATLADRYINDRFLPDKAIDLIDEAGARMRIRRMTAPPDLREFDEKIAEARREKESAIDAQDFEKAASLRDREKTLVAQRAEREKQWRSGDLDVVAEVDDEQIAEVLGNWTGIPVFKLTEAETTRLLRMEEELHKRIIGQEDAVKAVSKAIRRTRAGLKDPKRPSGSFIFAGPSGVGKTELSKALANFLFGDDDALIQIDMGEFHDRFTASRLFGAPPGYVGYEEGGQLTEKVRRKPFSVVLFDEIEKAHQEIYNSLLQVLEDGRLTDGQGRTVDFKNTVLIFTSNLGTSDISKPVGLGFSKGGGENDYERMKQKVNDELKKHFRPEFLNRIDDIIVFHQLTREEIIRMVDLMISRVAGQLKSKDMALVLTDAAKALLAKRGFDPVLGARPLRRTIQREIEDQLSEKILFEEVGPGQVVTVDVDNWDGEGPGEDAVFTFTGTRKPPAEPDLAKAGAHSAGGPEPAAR
- Sequence (P9WPC3 whole entry, further chain): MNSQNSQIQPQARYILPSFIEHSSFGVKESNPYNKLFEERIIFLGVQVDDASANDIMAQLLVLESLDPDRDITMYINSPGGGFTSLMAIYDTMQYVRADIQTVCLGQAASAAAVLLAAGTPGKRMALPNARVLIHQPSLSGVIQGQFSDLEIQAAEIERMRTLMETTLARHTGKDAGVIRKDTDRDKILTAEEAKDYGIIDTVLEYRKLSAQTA
- ASSAY NOTES: biochemical
- Assay type: biochemical
- TEST CONTEXT: read-out: DC50, Mean
REPORTED ENDPOINT: DC50 (µM)
Note: unit µM is implicit; provide only the numeric part.

Study these solved cases before continuing.
COC(c1ccc(OCc2cn(CCOCCOCCOCCOCCn3cc(COc4ccc(C(OC)C5NC(=O)C(C)NC(=O)C(CC(C)CO)N(C)C(=O)C(Cc6cn(C)c7ccccc67)N(C)C(=O)C(C(C)C)NC(=O)C(CC(C)C)N(C)C(=O)C(C(C)C)NC5=O)cc4)nn3)nn2)cc1)C1NC(=O)C(C)NC(=O)C(CC(C)CO)N(C)C(=O)C(Cc2cn(C)c3ccccc23)N(C)C(=O)C(C(C)C)NC(=O)C(CC(C)C)N(C)C(=O)C(C(C)C)NC1=O (centres unmarked) [SI-65] = 8
COC(c1ccccc1)C1NC(=O)C(C)NC(=O)C(CC(C)CO)N(C)C(=O)C(Cc2cn(C)c3ccccc23)NC(=O)C(Cc2cn(CCCCCn3cc(CC4NC(=O)C(CC(C)C)N(C)C(=O)C(C(C)C)NC(=O)C(C(OC)c5ccccc5)NC(=O)C(C)NC(=O)C(CC(C)CO)N(C)C(=O)C(Cc5cn(C)c6ccccc56)NC4=O)nn3)nn2)NC(=O)C(CC(C)C)N(C)C(=O)C(C(C)C)NC1=O (centres unmarked) [Compound 12] = 7.1
COC(c1ccc(OCc2cn(CCOCCOCCOCCOCCn3cc(COc4ccc(C(OC)C5NC(=O)C(C)NC(=O)C(CC(C)CO)N(C)C(=O)C(Cc6cn(C)c7ccccc67)NC(=O)C(C(C)C)NC(=O)C(CC(C)C)N(C)C(=O)C(C(C)C)NC5=O)cc4)nn3)nn2)cc1)C1NC(=O)C(C)NC(=O)C(CC(C)CO)N(C)C(=O)C(Cc2cn(C)c3ccccc23)NC(=O)C(C(C)C)NC(=O)C(CC(C)C)N(C)C(=O)C(C(C)C)NC1=O (centres unmarked) [SI-39] = 7.7

// query What DC50 value was documented for this molecule, CO[C@H](c1ccccc1)[C@@H]1NC(=O)[C@H](C)NC(=O)[C@H](C[C@@H](C)CO)N(C)C(=O)[C@H](Cc2cn(CCCCn3cc(C[C@H]4C(=O)N(C)[C@@H](C[C@@H](C)CO)C(=O)N[C@@H](C)C(=O)N[C@@H]([C@H](OC)c5ccccc5)C(=O)N[C@@H](C(C)C)C(=O)N(C)[C@@H](CC(C)C)C(=O)N[C@@H](C(C)C)C(=O)N4C)c4ccccc43)c3ccccc23)N(C)C(=O)[C@H](C(C)C)NC(=O)[C@H](CC(C)C)N(C)C(=O)[C@H](C(C)C)NC1=O [SI-61] ?
// result 7.2
